Reference for the values: paper PMC10397247

# interaction score listing for each entry below
Target: T1, 4H963-AA
T1 chain: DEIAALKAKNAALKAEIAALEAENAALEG
Test: two-hybrid library CCmax;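 further: natural log of median RNA to DNA barcode read ratio; higher means stronger binding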
Conditions: mean of both orientations
The answer should be a number; do not append a unit.

Past entries and their recorded results:
• DEIAALEAKIAALKAKNAALEAKNAALKG [4H376-AA] = -1.33
• DEIAALKAENAALEAKIAALKAKNAALKG [4H688-AA] = 1.46
• DEIAALEAKNAALEAENAALEAKIAALKG [4H406-AA] = -1.6

Q) Which interaction score is listed for DEIAALEAENAALKAKNAALKAEIAALEG [4H249-AA] ?
A) -1.65
